assay: Oral bioavailability in Sprague-Dawley rat at 28 mg/kg measured up to 24 hrs; format: ADME, organism-based; conditions: in vivo

{"Molecule": "Cc1cc(C(C)NC(=O)c2[nH]cc(Cc3ccc(C(F)(F)F)nc3)c2C)no1 (stereo in doubt; form 1)", "bioavailability, %": 43}

====

target: Albumin (Bos taurus, UniProt P02769); assay: Binding affinity to bovine serum albumin by Albumax assay; assay type: ADME; conditions: cattle, isolated protein
Sequence (P02769 whole entry): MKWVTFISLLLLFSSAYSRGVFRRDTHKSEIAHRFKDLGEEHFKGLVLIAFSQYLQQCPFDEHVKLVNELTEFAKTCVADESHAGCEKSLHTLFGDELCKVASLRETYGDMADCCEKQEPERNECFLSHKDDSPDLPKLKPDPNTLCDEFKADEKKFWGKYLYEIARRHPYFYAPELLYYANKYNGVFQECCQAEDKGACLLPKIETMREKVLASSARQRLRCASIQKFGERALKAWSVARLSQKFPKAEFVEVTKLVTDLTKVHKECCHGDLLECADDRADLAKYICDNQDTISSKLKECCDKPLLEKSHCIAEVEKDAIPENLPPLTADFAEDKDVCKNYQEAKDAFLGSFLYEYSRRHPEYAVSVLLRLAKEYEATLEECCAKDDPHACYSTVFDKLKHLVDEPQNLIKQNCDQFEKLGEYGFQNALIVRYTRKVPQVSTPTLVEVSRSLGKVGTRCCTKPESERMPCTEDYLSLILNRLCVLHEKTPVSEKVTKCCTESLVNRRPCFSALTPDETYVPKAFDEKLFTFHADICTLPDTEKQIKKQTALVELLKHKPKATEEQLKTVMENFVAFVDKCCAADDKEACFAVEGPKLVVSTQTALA
Activity for assorted compounds
Recorded Metric: Activity (%)

{"Compound": "Cc1c(Cc2ccc(C(F)(F)F)nc2)c[nH]c1C(=O)NC(C)c1cnn(C)c1 (stereo in doubt; form 1)", "System Tested": "Albumin (Bos taurus, UniProt P02769)", "Recorded Metric": "Activity", "Unit Of Measurement": "%", "Test Value": 49.5}
{"Compound": "Cc1cc(C(C)NC(=O)c2[nH]cc(Cc3ccc(C(F)(F)F)nc3)c2C)no1 (stereo in doubt; form 1)", "System Tested": "Albumin (Bos taurus, UniProt P02769)", "Recorded Metric": "Activity", "Unit Of Measurement": "%", "Test Value": 75}
{"Compound": "Cc1c(C2(c3ccc(C(F)(F)F)nc3)CC2)c[nH]c1C(=O)NC(C)c1nc[nH]n1 (stereo in doubt; form 1)", "System Tested": "Albumin (Bos taurus, UniProt P02769)", "Recorded Metric": "Activity", "Unit Of Measurement": "%", "Test Value": 71.9}
{"Compound": "Cc1c(Cc2ccc(C(F)(F)F)nc2)c[nH]c1C(=O)NC(C)c1cn[nH]c1 (stereo in doubt; form 1)", "System Tested": "Albumin (Bos taurus, UniProt P02769)", "Recorded Metric": "Activity", "Unit Of Measurement": "%", "Test Value": 49.5}
{"Compound": "Cc1cc(Nc2ccc(S(F)(F)(F)(F)F)cc2)n2nc(C(F)(F)F)nc2n1", "System Tested": "Albumin (Bos taurus, UniProt P02769)", "Recorded Metric": "Activity", "Unit Of Measurement": "%", "Test Value": 83.1}

====

conditions: rat, plasma

{"Compound": "Cc1cc(C(C)NC(=O)c2[nH]cc(Cc3ccc(C(F)(F)F)nc3)c2C)no1 (stereo in doubt; form 1)", "Unit Of Measurement": "%", "PPB": 93.7}
{"Compound": "Cc1c(Cc2ccc(C(F)(F)F)nc2)c[nH]c1C(=O)NC(C)c1cnn(C)c1 (stereo in doubt; form 1)", "Unit Of Measurement": "%", "PPB": 95.1}
{"Compound": "Cc1c(C2(c3ccc(C(F)(F)F)nc3)CC2)c[nH]c1C(=O)NC(C)c1nc[nH]n1 (stereo in doubt; form 1)", "Unit Of Measurement": "%", "PPB": 94.3}
{"Compound": "Cc1c(Cc2ccc(C(F)(F)F)nc2)c[nH]c1C(=O)NC(C)c1cn[nH]c1 (stereo in doubt; form 1)", "Unit Of Measurement": "%", "PPB": 91.4}

====

assay: Intrinsic clearance in mouse liver microsomes at 1 uM measured up to 4 hrs by LC-MS analysis; assay type: ADME, Microsome
Intrinsic clearance for assorted compounds

{"Compound": "Cc1cc(Nc2ccc(S(F)(F)(F)(F)F)cc2)n2nc(C(F)(F)F)nc2n1", "Censoring Sign": "<", "Intrinsic clearance / µL/min/mg": 7}
{"Compound": "Cc1c(Cc2ccc(C(F)(F)F)nc2)c[nH]c1C(=O)NC(C)c1cnn(C)c1 (stereo in doubt; form 1)", "Censoring Sign": "=", "Intrinsic clearance / µL/min/mg": 41}
{"Compound": "Cc1c(Cc2ccc(C(F)(F)F)nc2)c[nH]c1C(=O)NC(C)c1cn[nH]c1 (stereo in doubt; form 1)", "Censoring Sign": "=", "Intrinsic clearance / µL/min/mg": 31}
{"Compound": "Cc1cc(C(C)NC(=O)c2[nH]cc(Cc3ccc(C(F)(F)F)nc3)c2C)no1 (stereo in doubt; form 1)", "Censoring Sign": "=", "Intrinsic clearance / µL/min/mg": 63}
{"Compound": "Cc1c(C2(c3ccc(C(F)(F)F)nc3)CC2)c[nH]c1C(=O)NC(C)c1nc[nH]n1 (stereo in doubt; form 1)", "Censoring Sign": "=", "Intrinsic clearance / µL/min/mg": 11}

====

experiment: Plasma clearance in Sprague-Dawley rat at […], iv measured up to 24 hrs; type: ADME, organism-based; conditions: dose 1.8 mg/kg
Recorded Metric: clearance at 24 h (mL/min/kg)

{"Compound": "Cc1c(C2(c3ccc(C(F)(F)F)nc3)CC2)c[nH]c1C(=O)NC(C)c1nc[nH]n1 (stereo in doubt; form 1)", "Unit Of Measurement": "mL/min/kg", "Test Value": 6.8}

====

test: in vitro; settings: rat, blood and plasma
Recorded Metric: blood plasma ratio

{"Molecule": "Cc1c(Cc2ccc(C(F)(F)F)nc2)c[nH]c1C(=O)NC(C)c1cn[nH]c1 (stereo in doubt; form 1)", "Test Value": 1.3}

====

tested on: Plasmodium falciparum

{"Compound": "Cc1cc(C(C)NC(=O)c2[nH]c(C)c(Cc3ccc(C(F)(F)F)nc3)c2C)no1 (stereo in doubt; form 1)", "Censoring Sign": "=", "EC50, µM": 0.012}
{"Compound": "Cc1c(Cc2ccc(F)c(F)c2)c[nH]c1C(=O)NC(C)c1nc[nH]n1 (stereo in doubt; form 1)", "Censoring Sign": "=", "EC50, µM": 0.72}
{"Compound": "Cc1c(C2(c3ccc(C(F)(F)F)nc3)CC2)c[nH]c1C(=O)NC(C)c1nc[nH]n1 (stereo in doubt; form 1)", "Censoring Sign": "=", "EC50, µM": 0.17}
{"Compound": "Cc1c(C2(c3ccc(C(F)(F)F)nc3)CC2)c[nH]c1C(=O)NC(C)c1cc(C(N)=O)[nH]n1 (stereo in doubt; form 2)", "Censoring Sign": "=", "EC50, µM": 0.0094}
{"Compound": "Cc1c(Cc2ccc(C(F)(F)F)nc2)c[nH]c1C(=O)NC(C)c1cc(C#N)[nH]n1 (stereo in doubt; form 2)", "Censoring Sign": "=", "EC50, µM": 6.1}
{"Compound": "Cc1c(C2(c3ccc(C(F)(F)F)nc3)CC2)c[nH]c1C(=O)NC(C)c1cn[nH]c1 (stereo in doubt; form 1)", "Censoring Sign": "=", "EC50, µM": 1.3}
{"Compound": "CNC(=O)c1cc(C(C)NC(=O)c2[nH]cc(Cc3ccc(C(F)(F)F)nc3)c2C)n[nH]1 (stereo in doubt; form 1)", "Censoring Sign": "=", "EC50, µM": 0.17}
{"Compound": "Cc1c(Cc2ccc(C(F)(F)F)nc2)c[nH]c1C(=O)NC(C)c1nc[nH]n1 (racemic)", "Censoring Sign": "=", "EC50, µM": 0.16}
{"Compound": "Cc1c(Cc2ccc(F)c3ccncc23)c[nH]c1C(=O)NC(C)c1nc[nH]n1 (stereo in doubt; form 2)", "Censoring Sign": "=", "EC50, µM": 2.3}
{"Compound": "Cc1cc(C(C)NC(=O)c2[nH]cc(-c3c[nH]c4cc(C(F)(F)F)ccc34)c2C)no1 (stereo in doubt; form 1)", "Censoring Sign": ">", "EC50, µM": 1}
{"Compound": "Cc1cc(C(C)NC(=O)c2[nH]cc(-c3c[nH]c4cc(C(F)(F)F)ccc34)c2C)no1 (stereo in doubt; form 2)", "Censoring Sign": "=", "EC50, µM": 0.085}
{"Compound": "Cc1c(-c2c[nH]c3nc(C(F)(F)F)ccc23)c[nH]c1C(=O)NC(C)c1nc[nH]n1 (stereo in doubt; form 2)", "Censoring Sign": "=", "EC50, µM": 2}
{"Compound": "Cc1c(Cc2ccc(C(F)(F)F)nc2)c[nH]c1C(=O)NC(C)c1cnn(C)c1 (stereo in doubt; form 2)", "Censoring Sign": "=", "EC50, µM": 0.35}
{"Compound": "Cc1c(Cc2ccc(C(F)(F)F)nc2)c[nH]c1C(=O)NC(C)c1cn[nH]c1 (stereo in doubt; form 1)", "Censoring Sign": "=", "EC50, µM": 0.0045}
{"Compound": "Cc1c(C2(c3ccc(C(F)(F)F)nc3)CC2)c[nH]c1C(=O)NC(C)c1cn[nH]c1 (stereo in doubt; form 2)", "Censoring Sign": "=", "EC50, µM": 0.0012}
{"Compound": "Cc1c(C2(c3ccc(C(F)(F)F)c(F)c3)CC2)c[nH]c1C(=O)NC(C)c1nc[nH]n1 (stereo in doubt; form 2)", "Censoring Sign": "=", "EC50, µM": 5.4}
{"Compound": "Cc1cc(C(C)NC(=O)c2[nH]cc(Cc3ccc(C(F)(F)F)nc3)c2C)n[nH]1 (stereo in doubt; form 2)", "Censoring Sign": ">", "EC50, µM": 10}
{"Compound": "Cc1c(Cc2ccc(F)c3ccncc23)c[nH]c1C(=O)NC(C)c1nc[nH]n1 (stereo in doubt; form 1)", "Censoring Sign": "=", "EC50, µM": 0.0095}
{"Compound": "Cc1cc(C(C)NC(=O)c2[nH]cc(C3(c4ccc(C(F)(F)F)nc4)CC3)c2C)no1 (stereo in doubt; form 2)", "Censoring Sign": "=", "EC50, µM": 0.0012}
{"Compound": "Cc1c(C2(c3cccc(C(F)(F)F)c3)CC2)c[nH]c1C(=O)NC(C)c1nc[nH]n1 (stereo in doubt; form 2)", "Censoring Sign": "=", "EC50, µM": 2.8}
{"Compound": "Cc1c(C2(c3ccc(C(F)(F)F)nc3)CC2)c[nH]c1C(=O)NC(C)c1cc(C(N)=O)[nH]n1 (stereo in doubt; form 1)", "Censoring Sign": "=", "EC50, µM": 0.046}
{"Compound": "Cc1cc(C(C)NC(=O)c2[nH]cc(-c3n[nH]c4cc(C(F)(F)F)ccc34)c2C)no1 (stereo in doubt; form 2)", "Censoring Sign": "=", "EC50, µM": 0.062}
{"Compound": "CNC(=O)c1cc(C(C)NC(=O)c2[nH]cc(Cc3ccc(C(F)(F)F)nc3)c2C)n[nH]1 (stereo in doubt; form 2)", "Censoring Sign": "=", "EC50, µM": 4.8}
{"Compound": "Cc1c(Cc2ccc(C(F)(F)F)cc2F)c[nH]c1C(=O)NC(C)c1nc[nH]n1 (stereo in doubt; form 2)", "Censoring Sign": "=", "EC50, µM": 5.8}
{"Compound": "Cc1c(C2(c3ccc(C(F)F)nc3)CC2)c[nH]c1C(=O)NC(C)c1nc[nH]n1 (stereo in doubt; form 2)", "Censoring Sign": ">", "EC50, µM": 20}
{"Compound": "Cc1cc(C(C)NC(=O)c2[nH]c(C)c(Cc3ccc(C(F)(F)F)nc3)c2C)no1 (stereo in doubt; form 2)", "Censoring Sign": ">", "EC50, µM": 1}
{"Compound": "Cc1cc(C(C)NC(=O)c2[nH]cc(Cc3ccc(C(F)(F)F)cc3)c2C)no1 (stereo in doubt; form 1)", "Censoring Sign": "=", "EC50, µM": 0.17}
{"Compound": "Cc1c(C2(c3ccc(C(F)(F)F)nc3)CC2)c[nH]c1C(=O)NC(C)c1cc(C(N)=O)[nH]n1 (racemic)", "Censoring Sign": "=", "EC50, µM": 3}
{"Compound": "Cc1c(C2(c3ccc(C(F)(F)F)cc3F)CC2)c[nH]c1C(=O)NC(C)c1nc[nH]n1 (stereo in doubt; form 2)", "Censoring Sign": "=", "EC50, µM": 0.41}
